Biological target: purified human IDO protein (Homo sapiens, UniProt P14902, E119G/P110S)
Construct: 6-Histidine tag (C)
Sequence (P14902 whole entry P110S/E119G): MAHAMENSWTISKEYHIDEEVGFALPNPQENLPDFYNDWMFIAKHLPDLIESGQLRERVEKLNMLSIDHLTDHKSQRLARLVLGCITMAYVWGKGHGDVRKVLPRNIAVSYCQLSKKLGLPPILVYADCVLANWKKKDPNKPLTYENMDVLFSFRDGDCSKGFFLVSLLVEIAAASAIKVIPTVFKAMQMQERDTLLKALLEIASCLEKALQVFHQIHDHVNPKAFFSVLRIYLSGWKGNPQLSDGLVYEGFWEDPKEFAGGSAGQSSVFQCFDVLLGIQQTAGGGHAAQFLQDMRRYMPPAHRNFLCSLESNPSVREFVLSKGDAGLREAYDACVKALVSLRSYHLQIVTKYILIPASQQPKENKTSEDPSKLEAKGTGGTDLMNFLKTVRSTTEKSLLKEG
Assay: Enzymatic IDO assay (kynurenine formation, absorbance at 480 nm)
Details: recombinant human IDO, 200 μM L-tryptophan, pH 6.5; reported in ranges
pIC50: −log10 of the molar value.
Property Measured: pIC50

CS(=O)(=O)N1CCC(COc2ccccc2-c2c[nH]cn2)CC1 :: 4.00 to 4.70
Clc1cccc(Cn2cncc2-c2ccccc2)c1 :: 4.00 to 4.70
CC(C)(C)OC(=O)Nc1ccccc1-c1c[nH]cn1 :: > 4.70
NCCCOc1ccccc1-c1cnc[nH]1 :: 4.00 to 4.70
Brc1ccc(-c2c[nH]cn2)cc1 :: 4.00 to 4.70

The compound listed as CNC(=O)Cc1cccc(COc2ccccc2-c2c[nH]cn2)c1 has a reported pIC50 of 4.00 to 4.70

# compound Clc1ccc(CNc2ccccc2-c2c[nH]cn2)cc1 ; its pIC50 = 4.00 to 4.70

----------
Biological target: purified human IDO protein (Homo sapiens, UniProt P14902, E119G/P110S)
Construct: 6-Histidine tag (C)
Assay: Enzymatic IDO assay (kynurenine formation, absorbance at 480 nm)
Details: recombinant human IDO, 200 μM L-tryptophan, pH 6.5; reported in ranges
Property Measured: IC50

The reported value for Clc1ccc(CCOc2ccccc2-c2c[nH]cn2)cc1 in terms of IC50 is 20 to 100 µM

----------
Molecular target: purified human IDO protein (Homo sapiens, UniProt P14902, E119G/P110S)
Construct: 6-Histidine tag (C)
Assay: Enzymatic IDO assay (kynurenine formation, absorbance at 480 nm)
Conditions: recombinant human IDO, 200 μM L-tryptophan, pH 6.5; reported in ranges
pIC50: −log10 of the molar value.
Property Measured: pIC50

# example entries with known answers
Oc1ccc(F)cc1-c1cc[nH]n1 [Compound 36, 4-fluoro-2-(1H-pyrazol-3-yl)phenol] :: > 4.70
Clc1ccc(COc2ccccc2-c2cnc[nH]2)cc1 [Compound 14] :: > 4.70
OCc1ccccc1-c1c[nH]cn1 [Compound 78, (2-(1H-imidazol-4-yl)phenyl)methanol] :: 4.00 to 4.70
Clc1ccccc1CCOc1ccccc1-c1c[nH]cn1 [Compound 15] :: > 4.70

The compound CCOC(=O)CCCn1cncc1-c1ccccc1 [Compound 121] on purified human IDO protein (Homo sapiens, UniProt P14902, E119G/P110S): pIC50 was 3.30 to 4.00

----------
Target: purified human IDO protein (Homo sapiens, UniProt P14902, E119G/P110S)
Construct: 6-Histidine tag (C)
Experiment: Enzymatic IDO assay (kynurenine formation, absorbance at 480 nm)
Conditions: recombinant human IDO, 200 μM L-tryptophan, pH 6.5; reported in ranges
pIC50: −log10 of the molar value. Counter-ions that a name gives are not always drawn.
Property Measured: pIC50

The cases that follow already have their pIC50 on record.
c1ccc(CCCn2cncc2-c2ccccc2)cc1 :: 4.00 to 4.70
N#Cc1ccc(Cn2cncc2-c2ccccc2)cc1 :: 4.00 to 4.70
CC(C)(CCO)CCOc1ccccc1-c1c[nH]cn1 :: 4.00 to 4.70
COC(=O)CCC(C)(C)CCOc1ccccc1-c1c[nH]cn1 :: 4.00 to 4.70
CC(C)(CCNc1ccncc1)CCOc1ccccc1-c1cnc[nH]1 :: 4.00 to 4.70
CC(=O)Nc1ccccc1CCOc1ccccc1-c1c[nH]cn1 :: 3.30 to 4.00
O=C(O)c1cccc(-c2c[nH]cn2)c1 :: 3.30 to 4.00
CC(C)(C)CCOc1cccc(O)c1-c1cnc[nH]1 [Compound 13, hydrochloride] :: > 4.70

Documented pIC50 of Clc1ccc(COc2ccc(OCc3ccc(Cl)cc3)c(-c3c[nH]cn3)c2)cc1 : 4.00 to 4.70

// pIC50 value for Brc1ccccc1CCOc1ccccc1-c1c[nH]cn1 : > 4.70

Note to self: pIC50 recorded for Cc1cccc(COc2ccccc2-c2cnc[nH]2)c1 was > 4.70

Value of measured pIC50 for the entry CC(=O)N1CCC(CCOc2ccccc2-c2c[nH]cn2)CC1 : > 4.70

Sample c1ccc(-c2c[nH]cn2)c(OCC2CCNCC2)c1 ; pIC50 observed: 4.00 to 4.70

Quick note, pIC50 for Clc1ccccc1OCCc1ccccc1-c1c[nH]cn1 landed at 4.00 to 4.70

// pIC50 lookup, compound = O=C1c2ccccc2CC1Oc1ccccc1-c1c[nH]cn1 (stereo not shown) , result: 4.00 to 4.70

Notebook: Cc1ccc(Cn2cncc2-c2ccccc2)cc1 , pIC50 read as 4.00 to 4.70
